- Tested on: PPARg DBDmut:RXRa IVT, anti-PPARg (DBD mutation: PPARg1 K132A/R137A, NR concentration 270 nM, RXRa partner concentration 90 nM)
- assay-overview: PBM binding z-score (relative to random genomic background probes); higher = stronger binding; sequences stand for … in GC…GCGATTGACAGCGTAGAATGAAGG
property-name: PBM binding z-score

TCGAGTAGGTTACCAATGGGGCACTCAGCTTTCT	-0.534
TAGCCTAGGTCATTCGGGGGCCAGTATAGAAAGC	2.22
ATGGAAAGGTCGAGGTGAGTATAGAGAAAGGGAA	1.74
TCATATAGGTAATACGGGTGAAAGTCGGCATCTA	0.9
ACAGACAGGTGATTAAGGTAACTCAGGCTATCAT	0.291
CCTTACGGGTCAAGGTTATAACACGGGTGGTACG	0.305
TTTGCTAGGTCAACGATGGTCAGCTAATCTGCTA	0.599
CCGACTGGGGCAGAAAAGTTACCATACCATCCGG	-1.85
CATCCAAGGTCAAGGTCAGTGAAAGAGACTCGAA	1.93
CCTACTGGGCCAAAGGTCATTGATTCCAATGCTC	0.541
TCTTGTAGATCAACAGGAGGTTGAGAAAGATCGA	0.852
GATACAGGGTCAGCTAGAGCCCAGAGTATGGAAA	-0.422
CGAACTAGGTCATTGACAGGACAGTGTATAGTAA	2.44
CCAGACATGTGAAAGGTAACTCAGTCTGGTACGC	-0.125
CACACTAGGTCACGAAAGGTCAAAGTCGAATGAC	3.1
CGAACGAGGGCATGAGTTGAAAGCAAATGCCGAT	-0.35
AGAATGAGGTTATACGTAGATCAGCGAAGAAAGT	0.885
AATACAGGGTCATCGTAGGACAGAGTACGCACAG	1.42
TCATATAGGTAAATGCTAGGTGAAAGGCCGATCT	1.09
CCTACCAGGCCAATCTGGGTCACTCAAGGCTTGA	-0.114
TTACCAAGGTGAGCTGAGGGCGTTGATCCAACTC	0.0128
ACTAGCAGGCCAAGGGTCACGCAAGATTAGTCCG	0.585
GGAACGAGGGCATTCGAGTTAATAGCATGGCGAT	-0.564
CGAACTACGTCATTGACAGGACAGTGAATAGTAA	0.611
TCTTGTATATCAAGCAGGTTAAGAAAGCCTGAGT	0.561
TCGAGTAGGTTAGTCGGAGCATTCAGCCAACATA	-0.361
CTCGAAAGGTCGTGCTCAGGTGAGTCTACCAAAC	-0.131
CCGATTGGGGCAAAGGTTACCATACTCAGTACGA	0.329
TCATATAGGTAAATGCTATGTGAAAGTCCGATCT	1.25
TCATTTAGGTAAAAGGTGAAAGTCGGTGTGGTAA	0.936
ACTCGGAGGACAAAGGTCAGACCTACGCCAGTGA	0.128
